TARGET_ENTITY: Keap1-Nrf2 (Homo sapiens, UniProt Q14145)
Construct: purchased Sino Biological 11981-H20B
TEST_PROTOCOL: Keap1-Nrf2 Binding Inhibitory Activity Assay (fluorescence polarization, Keap1_FL + FITC-Nrf2 peptide)
CONDITION_SET: Keap1-FL, 60 min room temperature
Consider the following compounds; for each one, report its IC50.

A selection of reference data follows.
[
  {
    "COMPOUND": "Cc1c2ccc3c1nnn3CCCCC1CCC(CC1)C(=O)N1CCc3ccc(cc3C1)C2CC(=O)O (centres unmarked) [Compound 34]",
    "MEASURED_METRIC": "IC50",
    "OBSERVED_MEASUREMENT": "≤ 100 nM"
  },
  {
    "COMPOUND": "Cc1c2ccc3c1nnn3CCOCCN1CCN(CC1)C(=O)c1ccc3ccc(cc3c1)C2CC(=O)O (centres unmarked) [Compound 8]",
    "MEASURED_METRIC": "IC50",
    "OBSERVED_MEASUREMENT": "1000 to 10000 nM"
  },
  {
    "COMPOUND": "O=C(O)CC1c2ccc3c(c2)CN(CC3)C(=O)N2CCC(CCCCn3nnc4cc1cnc43)CC2 (single isomer, unassigned) [Compound 51]",
    "MEASURED_METRIC": "IC50",
    "OBSERVED_MEASUREMENT": "100 to 1000 nM"
  },
  {
    "COMPOUND": "Cc1c2ccc3c1nnn3CCCOCc1ccc(cc1)C(=O)N(C)Cc1cc(ccn1)C2CC(=O)O (single isomer, unassigned) [Compound 26]",
    "MEASURED_METRIC": "IC50",
    "OBSERVED_MEASUREMENT": "100 to 1000 nM"
  },
  {
    "COMPOUND": "Cc1cc2cc3c1CCN(C3)C(=O)c1ccc(cc1)COCCCn1nnc3c(C)c(ccc31)C2CC(=O)O (centres unmarked) [Compound 4]",
    "MEASURED_METRIC": "IC50",
    "OBSERVED_MEASUREMENT": "≤ 100 nM"
  },
  {
    "COMPOUND": "Cc1c2ccc3c1nnn3CCOCCN1CCC(CC1)C(=O)N1CCc3ccc(cc3C1)C2CC(=O)O (centres unmarked) [Compound 3]",
    "MEASURED_METRIC": "IC50",
    "OBSERVED_MEASUREMENT": "1000 to 10000 nM"
  }
]

Here are 2 compounds. What values of IC50 were reported for them?
1. Cc1c2ccc3c1nnn3CCCCCCCCN(C)C(=O)N1CCc3ccc(cc3C1)C2CC(=O)O (centres unmarked) [Compound 40]
2. Cc1c2ccc3c1nnn3CCCOCc1ccc(cc1)C(=O)N(C)Cc1cccc(n1)C2CC(=O)O (single isomer, unassigned) [Compound 25]

RESULT:
1: ≤ 100 nM; 2: 1000 to 10000 nM
